TARGET OR TEST SYSTEM: Phosphatidylinositol 4,5-bisphosphate 3-kinase catalytic subunit alpha isoform (Homo sapiens, UniProt P42336)
Sequence (P42336 whole entry, canonical isoform): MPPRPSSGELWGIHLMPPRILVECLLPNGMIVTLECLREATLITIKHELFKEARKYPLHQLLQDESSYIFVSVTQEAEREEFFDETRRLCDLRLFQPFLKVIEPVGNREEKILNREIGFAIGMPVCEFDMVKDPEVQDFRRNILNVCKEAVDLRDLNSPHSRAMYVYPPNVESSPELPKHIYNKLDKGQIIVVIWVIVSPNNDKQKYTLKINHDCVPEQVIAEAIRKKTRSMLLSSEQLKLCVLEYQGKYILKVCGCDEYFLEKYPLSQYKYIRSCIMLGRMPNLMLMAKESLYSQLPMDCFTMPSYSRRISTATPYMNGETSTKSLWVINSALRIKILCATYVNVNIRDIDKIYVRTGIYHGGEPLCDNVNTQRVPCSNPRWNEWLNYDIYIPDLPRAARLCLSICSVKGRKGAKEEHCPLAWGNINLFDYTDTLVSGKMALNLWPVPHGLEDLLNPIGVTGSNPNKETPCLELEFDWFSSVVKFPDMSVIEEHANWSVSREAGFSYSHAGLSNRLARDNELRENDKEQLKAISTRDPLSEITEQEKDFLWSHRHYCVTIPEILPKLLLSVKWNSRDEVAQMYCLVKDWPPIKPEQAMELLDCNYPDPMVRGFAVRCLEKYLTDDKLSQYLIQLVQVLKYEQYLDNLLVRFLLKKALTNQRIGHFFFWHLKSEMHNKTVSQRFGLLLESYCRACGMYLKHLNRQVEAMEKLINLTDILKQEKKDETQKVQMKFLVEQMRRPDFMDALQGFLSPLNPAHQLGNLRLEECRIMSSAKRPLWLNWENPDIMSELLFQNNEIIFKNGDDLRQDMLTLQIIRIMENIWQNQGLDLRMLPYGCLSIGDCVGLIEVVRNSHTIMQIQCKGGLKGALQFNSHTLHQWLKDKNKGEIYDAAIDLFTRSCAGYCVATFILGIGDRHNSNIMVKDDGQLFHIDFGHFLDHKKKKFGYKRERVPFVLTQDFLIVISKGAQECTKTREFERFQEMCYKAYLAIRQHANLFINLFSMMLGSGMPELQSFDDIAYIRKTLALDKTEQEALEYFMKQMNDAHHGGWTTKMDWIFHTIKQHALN
ASSAY INFO: Inhibition of PI3Kalpha (unknown origin) using PIP2 as substrate incubated for 1 hr in presence of ATP by Kinase Glo luminescence assay
For each of the compounds below, state its pIC50.
Numbers only, as −log10 of the molar value.

# count of solved cases: 6
{"COMPOUND": "Cc1nc2cnc3ccc(-c4cnc5[nH]ccc5c4)cc3c2n1Cc1ccccc1", "pIC50": 6.93}
{"COMPOUND": "Cc1nc2cnc3ccc(-c4cnc5[nH]ccc5c4)cc3c2n1[C@@H](C)c1ccccc1", "pIC50": 7.27}
{"COMPOUND": "Cc1nc2cnc3ccc(-c4ccc(C(F)(F)F)cc4)cc3c2n1-c1ccc(F)cc1", "pIC50": 6.29}
{"COMPOUND": "Cc1nc2cnc3ccc(-c4cnc5[nH]ccc5c4)cc3c2n1CC1CCOCC1", "pIC50": 6.51}
{"COMPOUND": "Cc1nc2cnc3ccc(-c4cnc(N5CCOCC5)nc4)cc3c2n1-c1ccc(F)cc1", "pIC50": 6.33}
{"COMPOUND": "Cc1nc2cnc3ccc(-c4cnc(N)nc4)cc3c2n1-c1ccc(F)cc1", "pIC50": 7.44}

Would you mind listing pIC50 for each of the following compounds?
1. Cc1nc2cnc3ccc(-c4cnc5[nH]ccc5c4)cc3c2n1-c1ccc(N2CCOCC2)cc1
2. Cc1nc2cnc3ccc(-c4cnc5[nH]ccc5c4)cc3c2n1-c1ccc(C(C)(C)C#N)cc1

Solution:
1: 7.16; 2: 7.90
